All figures here come from paper PMC7930822.

test: phase I plasma pharmacokinetics (non-compartmental, LC-MS/MS); assay type: in vivo, human; conditions: human, plasma, po, 300 mg, multiple oral administration, 300 mg larotinib mesylate, steady state, plasma; read-out: Tmax,ss, median (min–max)
Counter-ions that a name gives are not always drawn.

compound: COc1cc2ncnc(Nc3ccc(F)c(Cl)c3)c2cc1OCCCN1C[C@@H]2OCCO[C@@H]2C1 [larotinib mesylate]
unit.text: h
Tmax: 5

====

assay: phase I plasma pharmacokinetics (non-compartmental, LC-MS/MS); assay type: in vivo, human; conditions: human, plasma, po, 220 mg, multiple oral administration, 220 mg larotinib mesylate, steady state, plasma; read-out: AUC0-t,ss, mean (min–max)
Structures can show the parent of a compound that is named as a salt.

molecule: COc1cc2ncnc(Nc3ccc(F)c(Cl)c3)c2cc1OCCCN1C[C@@H]2OCCO[C@@H]2C1 [larotinib mesylate]
unit.text: ng·h/mL
AUC(0-t): 30200
